Cited source: paper PMC6470675

tested on: Hep G2 human hepatocellular carcinoma cell line; assay: In vitro cell proliferation (MTT) assay, Hep G2; type: cell-based; conditions: Homo sapiens, HepG2; MTT, 72 h exposure
pIC50: −log10 of the molar value.
# Lookup of reported pIC50 keyed by entry
endpoint-label: pIC50

compound: Cc1cccc(NC(=O)Nc2ccc(Nc3nc4ccccc4nc3Cl)cc2)c1 [XVIId]
comparison-operator: =
recorded-number: 3.29
--
compound: Cc1nc2ccccc2nc1Nc1ccc(NC(=O)Nc2ccc(Cl)cc2)cc1 [Compound VIIIc]
comparison-operator: =
recorded-number: 4.66
--
compound: O=C(Nc1ccc(Cl)cc1)Nc1ccc(Nc2nc3ccccc3nc2Cl)cc1 [XVIIc]
comparison-operator: =
recorded-number: 3.21
--
compound: Cc1nc2ccccc2nc1Nc1ccc(NS(=O)(=O)c2ccc([N+](=O)[O-])cc2)cc1 [IXb]
comparison-operator: =
recorded-number: 4.61
--
compound: O=C(Nc1ccc(Cl)cc1)c1cccc(Nc2nc3ccccc3nc2Cl)c1 [Compound XVb]
comparison-operator: =
recorded-number: 4.56
--
compound: O=C(Nc1ccc(Nc2nc3ccccc3nc2Cl)cc1)c1ccccc1 [XVIa]
comparison-operator: =
recorded-number: 3.29
--
compound: O=C(Nc1ccc(Nc2nc3ccccc3nc2Cl)cc1)c1ccc(Cl)cc1 [XVIb]
comparison-operator: <
recorded-number: 3.00
--
compound: O=C(Nc1ccccc1)Nc1ccc(Nc2nc3ccccc3nc2Cl)cc1 [XVIIb]
comparison-operator: =
recorded-number: 3.29
--
compound: O=[N+]([O-])c1ccc(S(=O)(=O)Nc2ccc(Nc3nc4ccccc4nc3Cl)cc2)cc1 [XVIIIb]
comparison-operator: <
recorded-number: 3.00
--
compound: COc1ccc(C(=O)Nc2ccc(Nc3nc4ccccc4nc3Cl)cc2)cc1 [XVIc]
comparison-operator: <
recorded-number: 3.00
--
compound: Cc1ccc(S(=O)(=O)Nc2ccc(Nc3nc4ccccc4nc3C)cc2)cc1 [IXa]
comparison-operator: =
recorded-number: 4.64
--
compound: COc1cccc2c1C(=O)c1c(O)c3c(c(O)c1C2=O)C[C@@](O)(C(=O)CO)C[C@@H]3O[C@H]1C[C@H](N)[C@H](O)[C@H](C)O1 [Doxorubicin, reference compound]
comparison-operator: =
recorded-number: 5.92
--
compound: Cc1nc2ccccc2nc1Nc1ccc(NC(=O)Nc2ccccc2)cc1 [Compound VIIIb]
comparison-operator: =
recorded-number: 4.01
--
compound: S=C(Nc1ccccc1)Nc1ccc(Nc2nc3ccccc3nc2Cl)cc1 [XVIIa]
comparison-operator: =
recorded-number: 3.24
--
compound: Cc1nc2ccccc2nc1Nc1ccc(NC(=O)c2ccc(Cl)cc2)cc1 [Compound VIIb]
comparison-operator: =
recorded-number: 3.94
--
compound: Cc1nc2ccccc2nc1Nc1cccc(C(=O)Nc2ccc(Cl)cc2)c1 [VIb]
comparison-operator: =
recorded-number: 3.02
--
compound: Cc1cccc(NC(=O)Nc2ccc(Nc3nc4ccccc4nc3C)cc2)c1 [Compound VIIId]
comparison-operator: =
recorded-number: 4.44
--
compound: Cc1ccc(S(=O)(=O)Nc2ccc(Nc3nc4ccccc4nc3Cl)cc2)cc1 [XVIIIa]
comparison-operator: =
recorded-number: 3.31

###

# Lookup of reported melting point keyed by entry

compound: Cc1ccc(S(=O)(=O)Nc2ccc(Nc3nc4ccccc4nc3C)cc2)cc1 [IXa]
melting point: 198 to 199 °C
//
compound: COc1ccc(C(=O)Nc2ccc(Nc3nc4ccccc4nc3Cl)cc2)cc1 [XVIc]
melting point: 235 to 236 °C
//
compound: Cc1cccc(NC(=O)Nc2ccc(Nc3nc4ccccc4nc3C)cc2)c1 [Compound VIIId]
melting point: 280 to 281 °C
//
compound: Cc1nc2ccccc2nc1Nc1ccc(NC(=O)Nc2ccccc2)cc1 [Compound VIIIb]
melting point: > 300 °C
//
compound: O=[N+]([O-])c1ccc(S(=O)(=O)Nc2ccc(Nc3nc4ccccc4nc3Cl)cc2)cc1 [XVIIIb]
melting point: > 300 °C
//
compound: O=C(Nc1ccc(Nc2nc3ccccc3nc2Cl)cc1)c1ccc(Cl)cc1 [XVIb]
melting point: 233 to 235 °C
//
compound: O=C(Nc1ccccc1)Nc1ccc(Nc2nc3ccccc3nc2Cl)cc1 [XVIIb]
melting point: 280 to 281 °C

###

given-smiles: S=C(Nc1ccccc1)Nc1ccc(Nc2nc3ccccc3nc2Cl)cc1
melting point: 190 to 191 °C

given-smiles: O=C(Nc1ccc(Cl)cc1)Nc1ccc(Nc2nc3ccccc3nc2Cl)cc1
melting point: > 300 °C

given-smiles: Cc1ccc(S(=O)(=O)Nc2ccc(Nc3nc4ccccc4nc3Cl)cc2)cc1
melting point: 250 to 252 °C

given-smiles: Cc1nc2ccccc2nc1Nc1ccc(NC(=O)c2ccc(Cl)cc2)cc1
melting point: 234 to 235 °C

given-smiles: Cc1cccc(NC(=O)Nc2ccc(Nc3nc4ccccc4nc3Cl)cc2)c1
melting point: > 300 °C

###

# Lookup of reported melting point keyed by entry
endpoint-label: melting point

compound: Cc1nc2ccccc2nc1Nc1cccc(C(=O)Nc2ccc(Cl)cc2)c1 [VIb]
endpoint-label: melting point
result: 240 to 241 °C
//
compound: O=C(Nc1ccc(Nc2nc3ccccc3nc2Cl)cc1)c1ccccc1 [XVIa]
endpoint-label: melting point
result: 270 to 273 °C
//
compound: Cc1nc2ccccc2nc1Nc1ccc(NS(=O)(=O)c2ccc([N+](=O)[O-])cc2)cc1 [IXb]
endpoint-label: melting point
result: 180 to 182 °C
//
compound: O=C(Nc1ccc(Cl)cc1)c1cccc(Nc2nc3ccccc3nc2Cl)c1 [Compound XVb]
endpoint-label: melting point
result: 283 to 285 °C
//
compound: Cc1ccc(C(=O)Nc2ccc(Nc3nc4ccccc4nc3Cl)cc2)cc1 [XVId]
endpoint-label: melting point
result: 245 to 246 °C

###

# Lookup of reported inhibition at 10 µM keyed by entry
target: VEGFR-2 (Homo sapiens, UniProt P35968); construct: purchased Bio Science Corporation (BPS), San Diego, CA, USA; assay: In vitro VEGFR-2 inhibition assay (Kinase-Glo Plus luminescence); format: biochemical; details: single concentration of 10 µM; read-out: % of VEGFR-2 Inhibition
Sequence (P35968 20-1356): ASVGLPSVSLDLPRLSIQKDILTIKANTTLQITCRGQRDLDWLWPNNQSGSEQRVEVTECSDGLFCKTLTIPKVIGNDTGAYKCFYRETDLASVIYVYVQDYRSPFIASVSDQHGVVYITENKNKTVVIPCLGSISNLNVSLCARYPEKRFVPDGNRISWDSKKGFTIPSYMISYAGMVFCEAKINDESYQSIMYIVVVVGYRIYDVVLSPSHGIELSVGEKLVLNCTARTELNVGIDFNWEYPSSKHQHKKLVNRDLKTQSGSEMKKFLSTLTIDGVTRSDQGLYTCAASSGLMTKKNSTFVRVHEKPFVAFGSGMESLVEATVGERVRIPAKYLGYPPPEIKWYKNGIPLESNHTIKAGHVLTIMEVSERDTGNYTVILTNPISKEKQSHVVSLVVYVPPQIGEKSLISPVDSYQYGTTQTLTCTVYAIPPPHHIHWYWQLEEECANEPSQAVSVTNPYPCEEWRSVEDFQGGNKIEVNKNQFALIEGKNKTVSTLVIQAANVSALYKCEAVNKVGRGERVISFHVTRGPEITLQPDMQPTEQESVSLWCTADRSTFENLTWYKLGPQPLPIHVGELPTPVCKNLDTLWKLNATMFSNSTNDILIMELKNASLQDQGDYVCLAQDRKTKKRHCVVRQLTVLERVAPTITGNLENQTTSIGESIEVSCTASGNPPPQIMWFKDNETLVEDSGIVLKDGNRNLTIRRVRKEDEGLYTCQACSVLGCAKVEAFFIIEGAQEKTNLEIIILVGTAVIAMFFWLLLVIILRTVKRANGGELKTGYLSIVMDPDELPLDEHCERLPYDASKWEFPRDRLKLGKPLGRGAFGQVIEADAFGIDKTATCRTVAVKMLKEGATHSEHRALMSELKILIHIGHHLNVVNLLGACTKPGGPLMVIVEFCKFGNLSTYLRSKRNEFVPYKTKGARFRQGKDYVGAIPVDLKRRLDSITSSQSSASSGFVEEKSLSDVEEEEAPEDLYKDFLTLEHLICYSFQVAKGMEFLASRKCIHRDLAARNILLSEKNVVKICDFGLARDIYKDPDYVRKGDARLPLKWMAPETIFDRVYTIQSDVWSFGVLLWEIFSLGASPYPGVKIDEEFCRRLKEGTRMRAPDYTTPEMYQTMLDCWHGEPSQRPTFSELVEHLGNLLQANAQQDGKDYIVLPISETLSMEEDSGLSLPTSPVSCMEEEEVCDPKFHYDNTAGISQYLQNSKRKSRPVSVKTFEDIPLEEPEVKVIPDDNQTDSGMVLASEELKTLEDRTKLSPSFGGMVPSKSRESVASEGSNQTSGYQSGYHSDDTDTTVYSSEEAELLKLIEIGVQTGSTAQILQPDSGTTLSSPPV
endpoint-label: inhibition at 10 µM (%)

compound: COc1ccc(C(=O)Nc2ccc(Nc3nc4ccccc4nc3Cl)cc2)cc1 [XVIc]
study-target: VEGFR-2 (Homo sapiens, UniProt P35968)
recorded-number: 4
--
compound: Cc1nc2ccccc2nc1Nc1ccc(NC(=O)Nc2ccc(Cl)cc2)cc1 [Compound VIIIc]
study-target: VEGFR-2 (Homo sapiens, UniProt P35968)
recorded-number: 7
--
compound: S=C(Nc1ccccc1)Nc1ccc(Nc2nc3ccccc3nc2Cl)cc1 [XVIIa]
study-target: VEGFR-2 (Homo sapiens, UniProt P35968)
recorded-number: 10

###

target: VEGFR-2 (Homo sapiens); construct: purchased Bio Science Corporation (BPS), San Diego, CA, USA; experiment: In vitro VEGFR-2 inhibition assay (Kinase-Glo Plus luminescence); type: biochemical; conditions: single concentration of 10 µM; read-out: % of VEGFR-2 Inhibition
endpoint-label: inhibition at 10 µM (%)

given-smiles: O=C(Nc1ccc(Cl)cc1)c1cccc(Nc2nc3ccccc3nc2Cl)c1
recorded-number: 7
//
given-smiles: Cc1cccc(NC(=O)Nc2ccc(Nc3nc4ccccc4nc3C)cc2)c1
recorded-number: 5
//
given-smiles: Cc1nc2ccccc2nc1Nc1ccc(NC(=O)Nc2ccccc2)cc1
recorded-number: 4
//
given-smiles: Cc1nc2ccccc2nc1Nc1ccc(NS(=O)(=O)c2ccc([N+](=O)[O-])cc2)cc1
recorded-number: 3
//
given-smiles: Cc1nc2ccccc2nc1Nc1ccc(NC(=O)c2ccc(Cl)cc2)cc1
recorded-number: 4
//
given-smiles: O=[N+]([O-])c1ccc(S(=O)(=O)Nc2ccc(Nc3nc4ccccc4nc3Cl)cc2)cc1
recorded-number: 9
//
given-smiles: O=C(Nc1ccc(Nc2nc3ccccc3nc2Cl)cc1)c1ccc(Cl)cc1
recorded-number: 4
//
given-smiles: Cc1cccc(NC(=O)Nc2ccc(Nc3nc4ccccc4nc3Cl)cc2)c1
recorded-number: 5
//
given-smiles: O=C(Nc1ccccc1)Nc1ccc(Nc2nc3ccccc3nc2Cl)cc1
recorded-number: 10
